Where do the numbers come from? From patent US20260069689A1.

TARGET: SARS-COV-2 RBD extracellular domain expressed with a C-terminal mouse IgG2a Fc (SARS-CoV-2)
ASSAY_PROTOCOL: Biacore SPR, mAb captured on anti-hFc, 25 C
As shown below, each of these binders has a reported kon value.
PROPERTY_MEASURED: kon (M⁻¹ s⁻¹)

INSERT INTO assay_data (binder, readout_unit, test_value) VALUES
  ('mAb14247 (antibody, V domains shown) VH: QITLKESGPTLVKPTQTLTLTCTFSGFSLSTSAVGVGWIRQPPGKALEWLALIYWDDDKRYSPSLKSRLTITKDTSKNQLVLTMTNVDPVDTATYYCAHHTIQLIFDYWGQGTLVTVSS VL: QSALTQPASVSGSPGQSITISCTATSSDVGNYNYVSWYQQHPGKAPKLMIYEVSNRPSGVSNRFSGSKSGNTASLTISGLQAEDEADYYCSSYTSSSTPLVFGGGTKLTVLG', 'M⁻¹ s⁻¹', '1.19e+06'),
  ('mAb15164 (antibody, V domains shown) VH: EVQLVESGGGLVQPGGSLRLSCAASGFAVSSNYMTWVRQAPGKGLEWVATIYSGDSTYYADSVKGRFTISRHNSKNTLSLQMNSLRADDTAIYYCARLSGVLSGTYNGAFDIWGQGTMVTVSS VL: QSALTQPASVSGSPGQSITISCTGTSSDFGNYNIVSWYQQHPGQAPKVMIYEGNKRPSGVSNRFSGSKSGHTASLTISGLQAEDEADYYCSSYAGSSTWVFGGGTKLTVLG', 'M⁻¹ s⁻¹', 372000),
  ('mAb14289 (antibody, V domains shown) VH: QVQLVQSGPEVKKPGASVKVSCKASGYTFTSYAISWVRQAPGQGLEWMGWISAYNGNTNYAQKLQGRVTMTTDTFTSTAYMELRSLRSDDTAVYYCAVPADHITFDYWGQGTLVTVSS VL: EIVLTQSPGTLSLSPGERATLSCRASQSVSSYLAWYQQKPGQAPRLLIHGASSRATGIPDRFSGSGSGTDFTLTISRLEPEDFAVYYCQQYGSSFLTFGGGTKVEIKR', 'M⁻¹ s⁻¹', '1.43e+06');
